Every entry's value here was drawn from patent US7473679B2.

System: chromaffin cells permeabilized with digitonin
Assay: Inhibition of the release of catecholamines induced by calcium in permeabilized chromaffin cells
Format: cell-based, bovine
Settings: peptide at 1 mM, stimulated with calcium
assay.metric: inhibition of the release of catecholamines (epinephrine and norepinephrine)

# substance, data.value
data = [
    ("SEQ. ID. No. 5: peptide from the carboxyl end of SNAP-25 [SEQ. ID. No. 4], (COOH) peptide (RIMEKADSNKTRIDEANQ)", "approximately 40%"),
    ("SEQ. ID. No. 6: peptide from the carboxyl end of SNAP-25 [SEQ. ID. No. 4], (COOH) peptide (ADSNKTRIDEANQRATKML)", "approximately 40%"),
]
